tgt: human TLR7 (Homo sapiens, UniProt Q9NYK1)
Sequence (Q9NYK1 27-1049): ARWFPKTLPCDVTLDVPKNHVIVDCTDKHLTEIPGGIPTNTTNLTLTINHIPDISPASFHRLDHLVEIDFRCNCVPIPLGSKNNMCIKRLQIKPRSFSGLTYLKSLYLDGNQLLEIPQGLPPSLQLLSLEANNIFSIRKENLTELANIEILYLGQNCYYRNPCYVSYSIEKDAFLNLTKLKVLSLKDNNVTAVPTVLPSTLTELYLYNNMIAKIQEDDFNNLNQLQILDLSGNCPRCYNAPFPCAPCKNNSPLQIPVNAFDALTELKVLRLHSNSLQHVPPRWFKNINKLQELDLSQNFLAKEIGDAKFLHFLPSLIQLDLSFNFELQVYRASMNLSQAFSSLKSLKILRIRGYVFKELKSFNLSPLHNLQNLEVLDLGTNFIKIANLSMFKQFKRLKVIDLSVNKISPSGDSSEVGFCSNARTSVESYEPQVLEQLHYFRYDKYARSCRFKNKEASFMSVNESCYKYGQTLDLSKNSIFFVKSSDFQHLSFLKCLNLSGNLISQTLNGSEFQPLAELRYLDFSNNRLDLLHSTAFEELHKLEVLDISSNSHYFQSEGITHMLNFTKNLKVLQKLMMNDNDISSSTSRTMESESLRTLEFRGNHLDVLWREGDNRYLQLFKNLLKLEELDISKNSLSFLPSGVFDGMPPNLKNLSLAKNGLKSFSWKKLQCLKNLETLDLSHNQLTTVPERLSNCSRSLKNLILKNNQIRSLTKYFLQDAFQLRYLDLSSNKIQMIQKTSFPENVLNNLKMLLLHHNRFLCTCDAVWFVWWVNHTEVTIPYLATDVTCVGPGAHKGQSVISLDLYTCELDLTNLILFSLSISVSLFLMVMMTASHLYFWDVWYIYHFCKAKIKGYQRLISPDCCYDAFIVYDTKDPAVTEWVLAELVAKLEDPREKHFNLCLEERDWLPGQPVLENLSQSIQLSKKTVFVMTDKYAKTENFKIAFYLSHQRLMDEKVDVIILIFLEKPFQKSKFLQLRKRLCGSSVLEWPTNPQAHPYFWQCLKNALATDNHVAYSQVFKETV
assay.text: Human TLR7 agonist activity (hTLR7 reporter) assay in HEK-Blue TLR7 cells, SEAP readout
test.context: 18 h treatment, average where assay repeated
pEC50: −log10 of the molar value.
The threshold is inclusive: pEC50 of exactly 7 counts as True; values below receive False.

Incoming: Please check the record CCCCNc1nc(N)nc2cnn(Cc3ccc(CN4CC5(CCNCC5)C4)cc3OC)c12 [Compound 256] and state if its pEC50 is at or above 7.
Outgoing: False

Incoming: Subsequent entry: COc1cc(C(=O)N[C@@H]2CCN(C)C2)ccc1Cn1ncc2nc(N)nc(NCC3CC4(CC4)C3)c21 [Compound 193]
Outgoing: True

Incoming: Subsequent entry: COc1cc(CNC2CCC2)ccc1Cn1ncc2nc(N)nc(NCC3CC4(CCC4)C3)c21 [Compound 153]
Outgoing: True

Incoming: Subsequent entry: COc1cc(C(=O)N2CCN(CC(C)(C)O)CC2)ccc1Cn1ncc2nc(N)nc(NCC3CC4(CC4)C3)c21 [Compound 239]
Outgoing: True

Incoming: Subsequent entry: COc1cc(CN2CC3(C2)CN(C(=O)C2(C)CC2)C3)ccc1Cn1ncc2nc(N)nc(NCC3CC4(C3)CC4F)c21 (centres unmarked) [Compound 128]
Outgoing: False

Incoming: Subsequent entry: COc1cc(CN2CC3(CN(C)C3)C2)ccc1Cn1ncc2nc(N)nc(NCC3CC4(C3)CC4(F)F)c21 (centres unmarked) [Compound 138]
Outgoing: False

Incoming: Subsequent entry: CCCCNc1nc(N)nc2cnn(Cc3ccc(CN4CC5(C4)CN(C(=O)C(C)(C)C)C5)cc3OC)c12 [Compound 105]
Outgoing: True

Incoming: Subsequent entry: COc1cc(C(=O)N2C[C@@H]3C[C@H]2CN3C)ccc1Cn1ncc2nc(N)nc(NCC3CC4(CC4)C3)c21 [Compound 179]
Outgoing: True

* * *

Overview of reported EC50 across a group of molecules:
tgt: human TLR7 (Homo sapiens, UniProt Q9NYK1)
assay.text: Human TLR7 agonist activity (hTLR7 reporter) assay in HEK-Blue TLR7 cells, SEAP readout
test.context: 18 h treatment, average where assay repeated
Answers without a unit are incomplete; give the number and then its unit.

Some entries whose results are on file:
COc1cc(C(=O)N2C[C@H]3CNC[C@H]3C2)ccc1Cn1ncc2nc(N)nc(NCC3CC4(CC4)C3)c21    96.5 nM
COc1cc(CN2C[C@@H]3C[C@H]2CN3)ccc1Cn1ncc2nc(N)nc(NCC3CC4(CCC4)C3)c21    76.9 nM
CCC[C@@H](CCO)Nc1nc(N)nc2cnn(Cc3ncc(C4CCC5(CC4)CN(C(C)C)C5)cc3OC)c12    19.7 nM
COc1cc(CN2C[C@H]3CN(C)C[C@H]3C2)ccc1Cn1ncc2nc(N)nc(NCC3CC4(CC4)C3)c21    74.2 nM
CCC[C@@H](CCO)Nc1nc(N)nc2cnn(Cc3ccc(CN4CC5(C4)CN(CC4CC4)C5)cc3OC)c12    14.5 nM

Incoming: Using the record for COc1cc(CN2C[C@H]3C[C@@H]2CN3C)ccc1Cn1ncc2nc(N)nc(NCC3CC4(CC4)C3)c21 , report its EC50.
Outgoing: 16.6 nM
